Biological target: T1, human IL-25 (human, UniProt Q9H293 33-177)
T1 construct: ELISA used bought R&D systems #1258-IL-025/CF; Treated as one molecule; also called IL-17E; human IL-17E
T1 sequence (looked up): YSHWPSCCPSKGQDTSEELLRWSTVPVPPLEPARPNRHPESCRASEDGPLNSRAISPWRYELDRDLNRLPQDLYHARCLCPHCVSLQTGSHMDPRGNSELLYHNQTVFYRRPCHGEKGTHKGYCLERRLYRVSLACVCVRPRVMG
Experiment: ELISA, plate coated with 2 µg/ml human IL-17E (IL-25)
property label: pEC50
Keep in mind that pEC50 stands for -log10 of concentration in molar terms.

Enquiry: For the binder VH1-1 + VL1-2 (humanized anti-IL-25 antibody formed by VH1-1 and VL1-2) (antibody, V domains shown, Captured by anti-human Fc gamma antibody in SPR) VH: QVTLKESGPTLVKPTQTLTLTCTFSGFSLSTSGMGLGWIRQPPGKALEWLAHIWWDDVKHYKPALKSRLTITKDTSKNQVVLTMTNVDPVDTATYYCARMGQLHYYGYDYAMDYWGQGTLVTVSS VL: EIVLTQSPATLSASPGERVTISCSASSSVSYMYWYQQKPGQAPRPLIYRTSNLASGVPARFSGSGSGTDYTLTISSMEPEDFATYYCQLYHSYPPTWTFGQGTKLEIK , what pEC50 is on record?
Return: 9.60

Enquiry: Can you look up the measured pEC50 of VH2-1 + VL1-2 (humanized anti-IL-25 antibody formed by VH2-1 and VL1-2) (antibody, V domains shown) VH: QVTLRESGPALLKPTQTLTLTCTFSGFSLSTSGMGLGWIRQPPGKALEWLAHIWWDDVKHYKPALKSRLTISKDTSKNQVVLTITNVDPVDTATYYCARMGQLHYYGYDYAMDYWGQGTLVTVSS VL: EIVLTQSPATLSASPGERVTISCSASSSVSYMYWYQQKPGQAPRPLIYRTSNLASGVPARFSGSGSGTDYTLTISSMEPEDFATYYCQLYHSYPPTWTFGQGTKLEIK for me?
Return: 9.71

Enquiry: Given the binder VH2-1 + VL2-1 (humanized anti-IL-25 antibody formed by VH2-1 and VL2-1) (antibody, V domains shown) VH: QVTLRESGPALLKPTQTLTLTCTFSGFSLSTSGMGLGWIRQPPGKALEWLAHIWWDDVKHYKPALKSRLTISKDTSKNQVVLTITNVDPVDTATYYCARMGQLHYYGYDYAMDYWGQGTLVTVSS VL: DIQLTQSPSFLSASVGDRVTITCSASSSVSYMYWYQQKPGKAPKPLIYRTSNLASGVPSRFSGSGSGTEYTLTISSMQPEDFATYYCQLYHSYPPTWTFGQGTKLEIK , what is its reported pEC50?
Return: 9.73

Enquiry: Look up pEC50: VH1-1 + VL2-1 (humanized anti-IL-25 antibody formed by VH1-1 and VL2-1) (antibody, V domains shown) VH: QVTLKESGPTLVKPTQTLTLTCTFSGFSLSTSGMGLGWIRQPPGKALEWLAHIWWDDVKHYKPALKSRLTITKDTSKNQVVLTMTNVDPVDTATYYCARMGQLHYYGYDYAMDYWGQGTLVTVSS VL: DIQLTQSPSFLSASVGDRVTITCSASSSVSYMYWYQQKPGKAPKPLIYRTSNLASGVPSRFSGSGSGTEYTLTISSMQPEDFATYYCQLYHSYPPTWTFGQGTKLEIK
Return: 9.82
